System: A2780
Test: Cytotoxicity against human A2780 cells assessed as intracellular ATP level at 10 uM after 72 hrs by luminometry
Assay type: functional, cell-based
Activity calls are given as the source filed them. The rule behind the calls is not given here.
Parameter call: string, one of 1 (yes) = active, 0 (no) = inactive

Examples with answers:
1. COc1cc(O)c2c(c1)O[C@H](c1ccccc1)CC2=O | 0 (no)
2. C[C@@H]1O[C@@H](O[C@@H]2[C@@H](O)[C@H](O)[C@@H](CO)O[C@H]2c2c(O)cc(O)c3c(=O)cc(-c4ccc(O)cc4)oc23)[C@H](O)[C@H](O)[C@H]1O | 0 (no)
3. COc1cc(OC)c2c(=O)cc(-c3ccccc3)oc2c1 | 0 (no)

Problem: # fetch the recorded call for "COc1cc2oc(-c3ccc(O)cc3)c(OC)c(=O)c2c(O)c1OC" here
Solution: 0 (no)

Problem: Another compound to check: COc1cc(OC)c2c(c1)OC(c1ccccc1)CC2=O (stereo not drawn)
Solution: 0 (no)

Problem: Another compound to check: "O=c1c(O)c(-c2ccc(O)cc2)oc2cc(O)cc(O)c12"
Solution: 0 (no)
